Biological target: T1, IL-10R1-Fc (UniProt Q13651 22-235, limits assumed)
T1 sequence (looked up): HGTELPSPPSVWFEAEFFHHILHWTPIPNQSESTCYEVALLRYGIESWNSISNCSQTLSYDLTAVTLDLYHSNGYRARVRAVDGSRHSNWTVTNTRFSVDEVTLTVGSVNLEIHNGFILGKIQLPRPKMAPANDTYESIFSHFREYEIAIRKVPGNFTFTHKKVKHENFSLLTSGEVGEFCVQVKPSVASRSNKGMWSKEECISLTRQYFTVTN
Experiment: ELISA, IL-10R1-Fc coated
For each of the binders below, state its Decreased fold of binding to ligand after Conjugating with S48.
Report only the number, with the unit fold understood.

Exercise: Entry under review: IL-10 Ser118Cys-S48 (ligand, human, UniProt P22301 19-178, looked up, S48 on Cys 118, mature) SPGQGTQSENSCTHFPGNLPNMLRDLRDAFSRVKTFFQMKDQLDNLLLKESLLEDFKGYLGCQALSEMIQFYLEEVMPQAENQDPDIKAHVNSLGENLKTLRLRLRRCHRFLPCENKCKAVEQVKNAFNKLQEKGIYKAMSEFDIFINYIEAYMTMKIRN . Reported Decreased fold of binding to ligand after Conjugating with S48?
Solution: 3

Exercise: Entry under review: IL-10 Arg159Cys-S48 (ligand, human, UniProt P22301 19-178, looked up, S48 on Cys 159, mature) SPGQGTQSENSCTHFPGNLPNMLRDLRDAFSRVKTFFQMKDQLDNLLLKESLLEDFKGYLGCQALSEMIQFYLEEVMPQAENQDPDIKAHVNSLGENLKTLRLRLRRCHRFLPCENKSKAVEQVKNAFNKLQEKGIYKAMSEFDIFINYIEAYMTMKICN . Reported Decreased fold of binding to ligand after Conjugating with S48?
Solution: 3
